- Tested on: adherent PBMNC
- test.protocol: Cell counts and viability of plastic adherent cells cultured with non-cytokine additives in polystyrene plates
- Assay type: cell-based, human
- protocol.conditions: Day 4, without GM-CSF
readout.label: TOTAL CELLS (E + 05)
Give bare numbers, in E + 05.

A selection of reference data follows.
>  <compound>
[F-].[Na+] [NaF, Sodium Fluoride]

>  <recorded.number>
2.19

$$$$
>  <compound>
Cn1c(=O)c2[nH]cnc2n(C)c1=O

>  <recorded.number>
2.12

$$$$
>  <compound>
CCCCC[C@H](O)/C=C/[C@H]1[C@H](O)CC(=O)[C@@H]1CCCCCCC(=O)O [PGE, Prostaglandin E1]

>  <recorded.number>
2.54

$$$$
>  <compound>
CCCCC/C=C\C/C=C\CCCCCCCC(=O)O

>  <recorded.number>
1.99

$$$$
>  <compound>
C=C1CCC(O)CC1=CC=C1CCCC2(C)C1CCC2C(C)CCCC(C)C (centres unmarked)

>  <recorded.number>
2.37

$$$$

# batch: return TOTAL CELLS for each of the 5 compounds below
1. Cc1c(C)c2c(c(C)c1O)CCC(C)(CCCC(C)CCCC(C)CCCC(C)C)O2 (mixture of isomers)
2. CNc1ccc2oc(CC3OC4(CCC3C)OC(C(C)C(=O)c3ccc[nH]3)C(C)CC4C)nc2c1C(=O)O (centres unmarked)
3. CCCC(=O)Nc1ncnc2c1ncn2[C@@H]1O[C@@H]2COP(=O)(O)O[C@H]2[C@H]1OC(=O)CCC
4. CCCCCCCCCCCCCC(=O)O[C@@H]1[C@@H](C)[C@@]2(O)[C@@H](C=C(CO)C[C@]3(O)C(=O)C(C)=C[C@@H]23)[C@@H]2C(C)(C)[C@]12OC(C)=O [PMA, Phorbol Myristate Acetate]
5. CC1=C(/C=C/C(C)=C/C=C/C(C)=C/C(=O)O)C(C)(C)CCC1

[1.64, 1.69, 2.18, 1.64, 1.48]

Give the reported TOTAL CELLS for this compound. Nc1ncnc2c1ncn2[C@@H]1O[C@@H]2COP(=O)(O)O[C@H]2[C@H]1O [cAMP, Cyclic Adenosine Monophosphate] 1.86

====

- Test system: adherent PBMNC
- test.protocol: Cell counts and viability of plastic adherent cells cultured with non-cytokine additives in polystyrene plates
- Assay type: cell-based, human
- Set-up: concentration or dose not given beside the values
- protocol.conditions: Day 4, with GM-CSF present, propidium iodide
Kindly state % VIABLE for each of the entries shown.
One number for each entry, in %.

Here is how some compounds turned out for % VIABLE.
>  <compound>
[F-].[Na+] [NaF, Sodium Fluoride]

>  <% VIABLE, %>
67.04

$$$$
>  <compound>
Cc1c(C)c2c(c(C)c1O)CCC(C)(CCCC(C)CCCC(C)CCCC(C)C)O2 (mixture of isomers)

>  <% VIABLE, %>
97.48

$$$$
>  <compound>
CCCCCCCCCCCCCC(=O)O[C@@H]1[C@@H](C)[C@@]2(O)[C@@H](C=C(CO)C[C@]3(O)C(=O)C(C)=C[C@@H]23)[C@@H]2C(C)(C)[C@]12OC(C)=O [PMA, Phorbol Myristate Acetate]

>  <% VIABLE, %>
97.60

$$$$

Hi! Can you tell me % VIABLE for each of these compounds?
1. Cn1c(=O)c2[nH]cnc2n(C)c1=O
2. CCCCC/C=C\C/C=C\CCCCCCCC(=O)O
3. Nc1ncnc2c1ncn2[C@@H]1O[C@@H]2COP(=O)(O)O[C@H]2[C@H]1O [cAMP, Cyclic Adenosine Monophosphate]
4. CCCC(=O)Nc1ncnc2c1ncn2[C@@H]1O[C@@H]2COP(=O)(O)O[C@H]2[C@H]1OC(=O)CCC
5. CCCCC[C@H](O)/C=C/[C@H]1[C@H](O)CC(=O)[C@@H]1CCCCCCC(=O)O [PGE, Prostaglandin E1]
6. C=C1CCC(O)CC1=CC=C1CCCC2(C)C1CCC2C(C)CCCC(C)C (centres unmarked)
7. CNc1ccc2oc(CC3OC4(CCC3C)OC(C(C)C(=O)c3ccc[nH]3)C(C)CC4C)nc2c1C(=O)O (centres unmarked)

1. 88.75
2. 96.07
3. 87.60
4. 85.86
5. 92.40
6. 95.86
7. 96.23

Output % VIABLE of `CC1=C(/C=C/C(C)=C/C=C/C(C)=C/C(=O)O)C(C)(C)CCC1` 95.30
